Assay: Mouse liver microsome stability
Settings: mouse, microsomes, T1/2 (min) no NADPH, mouse liver microsomes, no NADPH
reported-metric: half-life (h)
Give a bare numeral; the unit h is implied.

Task item: Record request: half-life value, item NCCNC(=O)C[C@@H]1CCC[C@]2(C1)OOC1(O2)C2CC3CC(C2)CC1C3 (stereo partly shown) [12c]
Reply: 2.27

* * *

Assay: Mouse liver microsome stability
Conditions: mouse, microsomes, T1/2 (min), half-life when incubated with mouse liver microsomes, mouse liver microsomes
half-life of 1 h or higher: YES. Under 1 h: NO.

Reference set (5 entries):
>  <compound>
CC(C)(N)CNC(=O)C[C@@H]1CCC[C@]2(C1)OOC1(O2)C2CC3CC(C2)CC1C3 (stereo partly drawn) [12a]

>  <cat>
YES

$$$$
>  <compound>
CC(C)(CN)CNC(=O)C[C@@H]1CCC[C@]2(C1)OOC1(O2)C2CC3CC(C2)CC1C3 (stereo partly drawn) [12d]

>  <cat>
YES

$$$$
>  <compound>
NCCNC(=O)C[C@@H]1CCC[C@]2(C1)OOC1(O2)C2CC3CC(C2)CC1C3 (stereo partly drawn) [12c]

>  <cat>
YES

$$$$
>  <compound>
O=C(C[C@@H]1CCC[C@]2(C1)OOC1(O2)C2CC3CC(C2)CC1C3)N1CCNCC1 (stereo partly drawn) [12g]

>  <cat>
NO

$$$$
>  <compound>
NC1CCN(C(=O)C[C@@H]2CCC[C@]3(C2)OOC2(O3)C3CC4CC(C3)CC2C4)CC1 (stereo partly drawn) [12i]

>  <cat>
YES

$$$$

Now consider a different compound.
Task item: # bool: half-life of NC(=O)CNC(=O)C[C@@H]1CCC[C@]2(C1)OOC1(O2)C2CC3CC(C2)CC1C3 (stereo partly drawn) [12b] >= 1 h
Reply: NO
